Test system: human red blood cells
Assay: Hemolytic assay
Assay type: cell-based
Conditions: concentration at 10% hemolytic activity on human red blood cells; mean (n = 2)
Method: Hemolysis assays were conducted using the protocols previously reported.
Recorded metric: Hemolysis HC10

Worked cases, answers included:
INSERT INTO measurements (molecule, recorded_metric, observed_value) VALUES
  ('O=C(CCC(=O)Nc1ccc2ccccc2c1)NCCCNCCCCCCCCCCCCNCCCNC(=O)CCC(=O)Nc1ccc2ccccc2c1.O=C(O)C(F)(F)F.O=C(O)C(F)(F)F [Compound 20f]', 'Hemolysis HC10', '>32.2 µM'),
  ('O=C(NCCCNCCCCCCCCCCNCCCNC(=O)c1ccc2ccccc2c1)c1ccc2ccccc2c1.O=C(O)C(F)(F)F.O=C(O)C(F)(F)F [Compound 19e]', 'Hemolysis HC10', '>38.9 µM'),
  ('O=C(CCC(=O)Nc1cccc2ccccc12)NCCCNCCCCCCNCCCNC(=O)CCC(=O)Nc1cccc2ccccc12.O=C(O)C(F)(F)F.O=C(O)C(F)(F)F [Compound 18b]', 'Hemolysis HC10', '>35.2 µM'),
  ('O=C(NCCCNCCCCCCNCCCNC(=O)c1ccc2ccccc2c1)c1ccc2ccccc2c1.O=C(O)C(F)(F)F.O=C(O)C(F)(F)F [Compound 19b]', 'Hemolysis HC10', '>41.7 µM'),
  ('O=C(NCCCNCCCCCCCCNCCCNC(=O)c1cccc2ccccc12)c1cccc2ccccc12.O=C(O)C(F)(F)F.O=C(O)C(F)(F)F [Compound 17d]', 'Hemolysis HC10', '>40.3 µM'),
  ('O=C(NCCCNCCCCCCCCCCCCNCCCNC(=O)c1ccc2ccccc2c1)c1ccc2ccccc2c1.O=C(O)C(F)(F)F.O=C(O)C(F)(F)F [Compound 19f]', 'Hemolysis HC10', '>37.6 µM'),
  ('O=C(CCC(=O)Nc1ccc2ccccc2c1)NCCCNCCCCCCCCCCNCCCNC(=O)CCC(=O)Nc1ccc2ccccc2c1.O=C(O)C(F)(F)F.O=C(O)C(F)(F)F [Compound 20e]', 'Hemolysis HC10', '>33.2 µM');

Which value of Hemolysis HC10 has been reported for O=C(CCC(=O)Nc1ccc2ccccc2c1)NCCCNCCCCCCCCNCCCNC(=O)CCC(=O)Nc1ccc2ccccc2c1.O=C(O)C(F)(F)F.O=C(O)C(F)(F)F [Compound 20d] in the records?
>34.2 µM

* * *

Tested on: A. baumannii (ATCC 19606)
Experiment: Antimicrobial MIC, A. baumannii
Type: cell-based, Acinetobacter baumannii
Conditions: Acinetobacter baumannii, ATCC19606, A. baumannii (ATCC 19606); mean (n = 2)
Recorded MIC values for a group of compounds are listed next.

INSERT INTO results (compound, observed_value) VALUES
  ('O=C(NCCCNCCCCCCCCNCCCNC(=O)c1cccc2ccccc12)c1cccc2ccccc12.O=C(O)C(F)(F)F.O=C(O)C(F)(F)F [Compound 17d]', '> 40.3 µM'),
  ('O=C(NCCCNCCCCCCNCCCNC(=O)c1ccc2ccccc2c1)c1ccc2ccccc2c1.O=C(O)C(F)(F)F.O=C(O)C(F)(F)F [Compound 19b]', '> 41.7 µM'),
  ('O=C(CCC(=O)Nc1cccc2ccccc12)NCCCNCCCCCCCCCCCCNCCCNC(=O)CCC(=O)Nc1cccc2ccccc12.O=C(O)C(F)(F)F.O=C(O)C(F)(F)F [Compound 18f]', '> 32 µM'),
  ('O=C(CCC(=O)Nc1ccc2ccccc2c1)NCCCNCCCCNCCCNC(=O)CCC(=O)Nc1ccc2ccccc2c1.O=C(O)C(F)(F)F.O=C(O)C(F)(F)F [Compound 20a]', '> 36.3 µM'),
  ('O=C(CCC(=O)Nc1ccc2ccccc2c1)NCCCNCCCCCCCCCCNCCCNC(=O)CCC(=O)Nc1ccc2ccccc2c1.O=C(O)C(F)(F)F.O=C(O)C(F)(F)F [Compound 20e]', '> 33.2 µM');

Which value of MIC has been reported for O=C(NCCCNCCCCCCCCCCNCCCNC(=O)c1cccc2ccccc12)c1cccc2ccccc12.O=C(O)C(F)(F)F.O=C(O)C(F)(F)F [Compound 17e] in the records?
> 38.9 µM

These entries and their values trace back to paper PMC10294832.
